- target-under-test: recombinant human secretory phospholipase A2 (Homo sapiens)
- measurement-protocol: Inhibition test of human secretory phospholipase A2 (chromogenic assay, 96 well microtiterplate)
- test-context: sPLA2 50 ng/well, 40° C., 30 minutes, OD 405 nm, substrate 1,2-bis(heptanoylthio)-1,2-dideoxy-sn-glycero-3-phospholylcholine
pIC50: −log10 of the molar value.
recorded-endpoint: pIC50

{"compound": "NC(=O)c1nncc2c(Cc3ccccc3)n3cccc(OCC(=O)O)c3c12", "target-under-test": "recombinant human secretory phospholipase A2 (Homo sapiens)", "pIC50": 4.40}
{"compound": "COC(=O)COc1cccn2c(Cc3ccccc3)c3c(c12)C(C(N)=O)=NCC3", "target-under-test": "recombinant human secretory phospholipase A2 (Homo sapiens)", "pIC50": 4.68}
{"compound": "NC(=O)C1=NCCc2c1c1c(OCC(=O)O)cccn1c2Cc1ccccc1", "target-under-test": "recombinant human secretory phospholipase A2 (Homo sapiens)", "pIC50": 5.80}
{"compound": "NC(=O)C1=CCCc2c1c1c(OCC(=O)O)cccn1c2Cc1ccccc1", "target-under-test": "recombinant human secretory phospholipase A2 (Homo sapiens)", "pIC50": 8.10}
{"compound": "NC(=O)C1OCCc2c1c1c(OCC(=O)O)cccn1c2Cc1ccccc1 (centres unmarked)", "target-under-test": "recombinant human secretory phospholipase A2 (Homo sapiens)", "pIC50": 7.46}

I: NC(=O)C1=CCCc2c1c1cc(OCCCC(=O)O)ccn1c2Cc1ccccc1
II: COC(=O)COc1cccn2c(Cc3ccc(-c4ccccc4)cc3)c3c(c12)C(C(N)=O)=CCC3
III: COC(=O)COc1cccn2c(Cc3ccccc3)c3c(c12)C(C(N)=O)OCC3 (centres unmarked)
INPUT: Ascending by pIC50, please. Reply with the labels, ordered as the question asks.
OUTPUT: III, II, I

###

- target-under-test: recombinant human secretory phospholipase A2 (Homo sapiens, UniProt P14555)
- Sequence (P14555 21-144): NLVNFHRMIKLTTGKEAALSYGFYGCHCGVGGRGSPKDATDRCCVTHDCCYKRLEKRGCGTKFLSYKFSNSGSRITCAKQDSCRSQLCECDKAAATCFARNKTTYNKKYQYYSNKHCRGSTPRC
- measurement-protocol: Inhibition test of human secretory phospholipase A2 (chromogenic assay, 96 well microtiterplate)
- Type: biochemical
- test-context: sPLA2 50 ng/well, 40° C., 30 minutes, OD 405 nm, substrate 1,2-bis(heptanoylthio)-1,2-dideoxy-sn-glycero-3-phospholylcholine
recorded-endpoint: IC50 (nM)

These recorded examples may help you get a feel for the data.
{"compound": "NC(=O)C1=CCCc2c1c1c(OCC(=O)O)cccn1c2Cc1ccc(-c2ccccc2)cc1", "value": 10}
{"compound": "COC(=O)COc1cccn2c(Cc3ccccc3)c3c(c12)C(C(N)=O)OCCC3 (stereo not drawn)", "value": 7500}
{"compound": "NC(=O)C1=NOCc2c1c1c(OCC(=O)O)cccn1c2Cc1ccccc1", "value": 31}

1: NC(=O)C1OCCCc2c1c1c(OCC(=O)O)cccn1c2Cc1ccccc1 (stereo not drawn)
2: CCOC(=O)CCCOc1ccn2c(Cc3ccccc3)c3c(c2c1)C(C(N)=O)=CCC3
INPUT: Which gives the smaller IC50 number: 1 or 2 ? Give the chosen item's label as your response.
OUTPUT: 2
(2: 175 nM, 1: 269 nM)

###

Catalogue of compounds with associated melting point

These recorded examples may help you get a feel for the data.
{"compound": "COC(=O)COc1cccn2c(Cc3ccccc3)c3c(c12)C(C(N)=O)OCCC3 (stereo not shown)", "melting point": "182 to 183 °C"}
{"compound": "NC(=O)C1=NCCc2c1c1c(OCC(=O)O)cccn1c2Cc1ccccc1", "melting point": "196 to 198 °C"}

INPUT: Would you mind telling me what melting point value was observed for NC(=O)C1OCCc2c1c1c(OCC(=O)O)cccn1c2Cc1ccccc1 (stereo not shown) ?
OUTPUT: 242 to 243 °C (dec.)

INPUT: Would you mind telling me what melting point value was observed for NC(=O)C1OCCCc2c1c1c(OCC(=O)O)cccn1c2Cc1ccccc1 (stereo not shown) ?
OUTPUT: 175 to 179 °C

INPUT: Would you mind telling me what melting point value was observed for "NC(=O)C1=CCCc2c1c1c(OCC(=O)O)cccn1c2Cc1ccc(-c2ccccc2)cc1" ?
OUTPUT: 224 to 227 °C

INPUT: Would you mind telling me what melting point value was observed for "COC(=O)COc1cccn2c(Cc3ccc(-c4ccccc4)cc3)c3c(c12)C(C(N)=O)=CCC3" ?
OUTPUT: 196 to 198 °C

INPUT: Would you mind telling me what melting point value was observed for COC(=O)COc1cccn2c(Cc3ccccc3)c3c(c12)C(C(N)=O)OCC3 (stereo not shown) ?
OUTPUT: 218 to 220 °C

Every entry's value here was drawn from patent US6673781B1.
